studySystem: HLA-B*44:05 (Homo sapiens, UniProt P01889, A223V/A65T/A93T/A95T/D201E/D98Y/E176V/E187L/E204Q/E69K/G107R/H137Y/K202T/L105A/L119I/N104T/N87E/Q56L/Q94N/R106L/R155S/R180D/S101N/S121R/S35A/S48T/T118I/V36M/W191S/Y91S)
method: MHC binding assay (UV-ligand exchange, β2m ELISA, peptide exchange yield)
experimentalContext: binding to HLA-B*44:05
experimentalReadout: Peptide exchange (MHC class I binding score, peptide exchange yield)

Use these answered entries as a reference point.
Task: Give its Peptide exchange (MHC class I binding score, peptide exchange yield) value. Item: 340 (GELAPSHGL; listed as Homo sapiens) [compound 340]
Result: +++ (>50 = +++)

Task: // same read-out, input: 351 (EEGRVYVY; listed as Homo sapiens) [compound 351]
Result: ++ (>20% = ++)

Task: Next substance up: 222 (SEDTIHTHL; listed as Homo sapiens) [compound 222]
Result: +++ (>50 = +++)

Task: Now this one: 284 (SQYPHTHTF; listed as Homo sapiens) [compound 284]
Result: +++ (>50 = +++)

Task: Same thing, different substance: 17 (SEIYQPRGF; listed as Homo sapiens) [compound 17]
Result: +++ (>50 = +++)

List Peptide exchange (MHC class I binding score, peptide exchange yield) for every entry below, keeping the order given.
1. 138 (KEAPNIVTL; listed as Homo sapiens) [compound 138]
2. 371 (NEIGQELTGQEW; listed as Homo sapiens) [compound 371]
3. 452 (NEVDGEYRY; listed as Homo sapiens) [compound 452]
4. 323 (SETAVVNVTY; listed as Homo sapiens) [compound 323]
5. 213 (DEDLFHKL; listed as Homo sapiens) [compound 213]
6. 148 (KESDAGRYY; listed as Homo sapiens) [compound 148]

Result:
["++++ (>75% = ++++)", "++++ (>75% = ++++)", "+++ (>50 = +++)", "++++ (>75% = ++++)", "++ (>20% = ++)", "+++ (>50 = +++)"]

Batch request: Peptide exchange (MHC class I binding score, peptide exchange yield) for each of the following substances.
1. 134 (IEIKDRLQL; listed as Homo sapiens) [compound 134]
2. 411 (AERDLNVTI; listed as Homo sapiens) [compound 411]

Result:
1. +++ (>50 = +++)
2. +++ (>50 = +++)

// each listed substance needs a value for Peptide exchange (MHC class I binding score, peptide exchange yield)
1. 334 (LEWQNSSSM; listed as Homo sapiens) [compound 334]
2. 57 (SEATHIITI; listed as Homo sapiens) [compound 57]
3. 147 (RMLSFQQMTW; listed as Homo sapiens) [compound 147]
4. 395 (AEDFVWAQW; listed as Homo sapiens) [compound 395]
5. 83 (TEGGTQKTF; listed as Homo sapiens) [compound 83]
6. 335 (SETPTLQGL; listed as Homo sapiens) [compound 335]

Result:
1. +++ (>50 = +++)
2. +++ (>50 = +++)
3. ++ (>20% = ++)
4. ++++ (>75% = ++++)
5. +++ (>50 = +++)
6. +++ (>50 = +++)
